TARGET OF ASSAY: β5c (Homo sapiens, UniProt P20618+P28074)
Construct: protease activity associated with the proteasome complex in cultured cells; endogenous in cells
TEST: Cell-Based Proteasome Activity/Selectivity Assay (Ramos cells), substrate (WLA)2Rh110
APPLIED CONDITIONS: highest concentration tested 20 μM
REPORTED PROPERTY: IC50 (µM)

In [3]: df
Out[3]:
                                   compound  assay_result
0  CC(C)C[C@H](NC(=O)[C@H](C)NC(=O)OCc1ccccc1)C(=O)N[C@@H](Cc1ccccc1)C(=O)C(=O)NCc1ccccc1 [Example 36]         0.973

I = CCCC[C@H](NC(=O)[C@H](Cc1c[nH]c2ccccc12)NC(=O)[C@H](C)NC(=O)OCc1ccccc1)C(=O)C(=O)NCc1ccccc1 [Example 9]
II = COc1ccc(C[C@H](NC(=O)[C@H](C)NS(=O)(=O)c2ccccc2C)C(=O)N[C@@H](Cc2ccccc2)C(=O)C(=O)NCc2ccccc2)cc1 [Example 40]
Lower IC50: I or II ? Indicate your choice by writing its label.
I
(I: 0.815 µM, II: 1.29 µM)

---

TARGET OF ASSAY: β5c (Homo sapiens, UniProt P20618+P28074)
Construct: protease activity associated with the proteasome complex in cultured cells; endogenous in cells
TEST: Cell-Based Proteasome Activity/Selectivity Assay (Ramos cells), substrate (WLA)2Rh110
APPLIED CONDITIONS: highest concentration tested 20 μM
Description: Cell-Based Proteasome Activity/Selectivity Assay The Cell-Based Proteasome subunit activity/selectivity assay was a panel of 5 fluorogenic assays that independently measured the activity of β5c or β5i (chymotrypsin-like activity), β2c/2i (trypsin-like), and β1c or β1i (caspase-like) protease activity associated with the proteasome complex in cultured cells. […]
REPORTED PROPERTY: IC50 (nM)

                            chemical_smiles  assay_result
0  COc1ccc(C[C@H](NC(=O)[C@H](C)NC(=O)C2=C(C)c3ccccc3C2)C(=O)N[C@@H](Cc2ccccc2)C(=O)C(=O)NCc2ccccc2)cc1           846
1  COc1ccc(C[C@H](NC(=O)[C@H](C)NC(=O)CCc2ccnn2C)C(=O)N[C@@H](Cc2ccccc2)C(=O)C(=O)NCc2ccccc2)cc1           385
2  COc1ccc(C[C@H](NC(=O)C2(NC(=O)OCc3ccccc3)CC2)C(=O)N[C@@H](Cc2ccccc2)C(=O)C(=O)NCc2ccccc2)cc1          5110

a = CC1=C(C(=O)N[C@@H](C)C(=O)N[C@@H](CCS(C)(=O)=O)C(=O)N[C@@H](Cc2ccccc2)C(=O)C(=O)NCc2ccccc2)Cc2ccccc21
b = CCCC[C@H](NC(=O)[C@H](Cc1c[nH]c2ccccc12)NC(=O)[C@H](C)NC(=O)c1cc(C)on1)C(=O)C(=O)NCc1ccccc1
Compare the recorded IC50 of a and b ; state which is larger. Indicate your choice by writing its label.
b
(b: 763 nM, a: 157 nM)

I = COc1ccc(C[C@H](NC(=O)C2(NC(=O)C3Cc4ccccc4C3)CC2)C(=O)N[C@@H](Cc2ccccc2)C(=O)C(=O)NCc2ccccc2)cc1
II = COc1ccc(C[C@H](NC(=O)[C@H](C)NC(=O)c2cc(C)on2)C(=O)N[C@@H](Cc2ccccc2)C(=O)C(=O)NCc2ccccc2)cc1
Compare the recorded IC50 of I and II ; state which is larger. Indicate your choice by writing its label.
I

---

Each item that follows carries a reported pEC50.
Tested on: IP10 level in PBMCs stimulated with CpG Type A
TEST: PBMC IP-10 Assay
Type: cell-based
APPLIED CONDITIONS: CpG Type A 2.5 μM
In plain terms, pEC50 is the concentration in mol/L turned into minus its base-10 logarithm.

Below, each entry is followed by its recorded pEC50 result.
In [3]: df
Out[3]:
                                   molecule  reported_property  assay_result
0  CCCCC(NC(=O)[C@H](COC)NC(=O)[C@H](C)NC(=O)c1cc(C)on1)C(=O)C(=O)NCc1ccccc1 (mixture of isomers) [Example 6]              pEC50          4.87
1  COc1ccc(C[C@H](NC(=O)[C@H](C)NC(=O)C2Cc3ccccc3C2)C(=O)NC2(C(=O)C(=O)NCc3ccccc3)Cc3ccccc3C2)cc1 [Example 59]              pEC50          4.93
2  CCCC[C@H](NC(=O)[C@H](CC(C)C)NC(=O)[C@@H](NC(=O)[C@H](Cc1ccccc1C)NC(C)=O)C(C)(C)C)C(=O)C(=O)NCc1ccccc1 [Example 1]              pEC50          5.69

With those in mind, consider the next molecule.
Reported pEC50 for CC(C)C[C@H](NC(=O)[C@H](C)NC(=O)OCc1ccccc1)C(=O)N[C@@H](Cc1ccccc1)C(=O)C(=O)NCc1ccccc1 [Example 36] : what is it?
5.55

---

TARGET OF ASSAY: β1i (Homo sapiens, UniProt P28065+P40306)
Construct: protease activity associated with the proteasome complex in cultured cells; endogenous in cells
TEST: Cell-Based Proteasome Activity/Selectivity Assay (Ramos cells), substrate (PAL)2Rh110
APPLIED CONDITIONS: highest concentration tested 20 μM
REPORTED PROPERTY: IC50 (nM)

COMPOUND	TARGET OF ASSAY	IC50 (nM)
C[C@H](NC(=O)OCc1ccccc1)C(=O)N[C@@H](Cc1c[nH]c2ccccc12)C(=O)N[C@@H](Cc1ccccc1)C(=O)C(=O)NC1CC1 [Example 32]	β1i (Homo sapiens, UniProt P28065+P40306)	266

A = C[C@H](NC(=O)c1cc(C(F)(F)F)nn1C)C(=O)N[C@@H](Cc1ccccc1)C(=O)N[C@@H](Cc1ccccc1)C(=O)C(=O)NCc1ccccc1 [Example 55]
B = CCCC[C@H](NC(=O)[C@H](Cc1ccc(OC)cc1)NC(=O)[C@H](C)NC(=O)CN1CCOCC1)C(=O)C(=O)NCc1ccccc1 [Example 3]
C = COc1ccc(C[C@H](NC(=O)C2(NC(=O)C3Cc4ccccc4C3)CC2)C(=O)N[C@@H](Cc2ccccc2)C(=O)C(=O)NCc2ccccc2)cc1 [Example 27]
D = COc1ccc(C[C@H](NC(=O)[C@H](C)NC(=O)c2cnccn2)C(=O)N[C@@H](Cc2ccccc2)C(=O)C(=O)NCc2ccccc2)cc1 [Example 29]
Highest IC50 first, then in falling order down to the smallest. The labels, placed in the requested order, form the answer.
A, C, B, D
(A: 8920 nM, C: 5060 nM, B: 560 nM, D: 218 nM)

P = COc1ccc(C[C@H](NC(=O)[C@H](C)NC(=O)CCc2ccnn2C)C(=O)N[C@@H](Cc2ccccc2)C(=O)C(=O)NCc2ccccc2)cc1 [Example 41]
Q = CC(C)C[C@H](NC(=O)[C@H](C)NC(=O)c1ccnn1C)C(=O)N[C@@H](Cc1ccccc1)C(=O)C(=O)NCc1ccccc1 [Example 37]
Lower IC50: P or Q ? Indicate your choice by writing its label.
P
(P: 697 nM, Q: 1080 nM)

P = C[C@H](NC(=O)OCc1ccccc1)C(=O)NC(CC1CCOCC1)C(=O)N[C@@H](Cc1ccccc1)C(=O)C(=O)NCc1ccccc1 (some centres unmarked) [Example 56]
Q = CCCC[C@H](NC(=O)[C@H](Cc1c[nH]c2ccccc12)NC(=O)[C@H](C)NC(=O)CN1CCOCC1)C(=O)C(=O)NCc1ccccc1 [Example 10]
Compare the recorded IC50 of P and Q ; state which is larger. Indicate your choice by writing its label.
P
(P: 879 nM, Q: 275 nM)

---

Test system: IP10 level in PBMCs stimulated with CpG Type A
TEST: PBMC IP-10 Assay
Format: cell-based
APPLIED CONDITIONS: CpG Type A 2.5 μM
Each item that follows carries a reported pEC50.
In plain terms, pEC50 is the concentration in mol/L turned into minus its base-10 logarithm.

Below, each entry is followed by its recorded pEC50 result.
>>> print(df.to_string())
                                   molecule                           target_of_assay  assay_result
0  C[C@H](NC(=O)OCc1ccccc1)C(=O)N[C@@H](Cc1c[nH]c2ccccc12)C(=O)N[C@@H](Cc1ccccc1)C(=O)C(=O)NC1CC1 [Example 32]  IP10 level in PBMCs stimulated with CpG Type A          6.03
1  COc1ccc(C[C@H](NC(=O)C2(NC(=O)C3Cc4ccccc4C3)CC2)C(=O)N[C@@H](Cc2ccccc2)C(=O)C(=O)NCc2ccccc2)cc1 [Example 27]  IP10 level in PBMCs stimulated with CpG Type A          5.31
2  COc1ccc(C[C@H](NC(=O)[C@H](C)NC(=O)CCc2ccnn2C)C(=O)N[C@@H](Cc2ccccc2)C(=O)C(=O)NCc2ccccc2)cc1 [Example 41]  IP10 level in PBMCs stimulated with CpG Type A          5.83
3  COc1ccc(C[C@H](NC(=O)[C@H](C)NC(=O)OCc2ccccc2)C(=O)N[C@@H](Cc2ccccc2)C(=O)C(=O)NCc2ccccc2)cc1 [Example 17]  IP10 level in PBMCs stimulated with CpG Type A          6.03
4  CC(C)C[C@H](NC(=O)[C@H](C)NC(=O)C1Cc2ccccc2C1)C(=O)N[C@@H](Cc1ccccc1)C(=O)C(=O)NCc1ccccc1 [Example 24]  IP10 level in PBMCs stimulated with CpG Type A          6.36

Reported pEC50 for C[C@H](NC(=O)C1Cc2ccccc2C1)C(=O)N[C@@H](Cc1c[nH]c2ccccc12)C(=O)N[C@@H](Cc1ccccc1)C(=O)C(=O)NCc1ccccc1 [Example 18] : what is it?
6.17

Reported pEC50 for COc1ccc(C[C@H](NC(=O)[C@H](C)NC(=O)c2cc3ncccc3n2C)C(=O)N[C@@H](Cc2ccccc2)C(=O)C(=O)NCc2ccccc2)cc1 [Example 45] : what is it?
5.88

Reported pEC50 for CCCC[C@H](NC(=O)[C@H](CC(C)C)NC(=O)[C@@H](NC(=O)CN1CCOCC1)C(C)(C)C)C(=O)C(=O)NCc1ccccc1 [Example 2] : what is it?
4.92

Reported pEC50 for CCCC[C@H](NC(=O)[C@H](Cc1ccc(OC)cc1)NC(=O)[C@H](C)NC(=O)CN1CCOCC1)C(=O)C(=O)NCc1ccccc1 [Example 3] : what is it?
5.10
